- TGT: T1, B-cat-Halo (beta-catenin HaloTag NanoBRET construct expressed in HEK293 cells) (UniProt P35222 1-781)
- T1 sequence (looked up): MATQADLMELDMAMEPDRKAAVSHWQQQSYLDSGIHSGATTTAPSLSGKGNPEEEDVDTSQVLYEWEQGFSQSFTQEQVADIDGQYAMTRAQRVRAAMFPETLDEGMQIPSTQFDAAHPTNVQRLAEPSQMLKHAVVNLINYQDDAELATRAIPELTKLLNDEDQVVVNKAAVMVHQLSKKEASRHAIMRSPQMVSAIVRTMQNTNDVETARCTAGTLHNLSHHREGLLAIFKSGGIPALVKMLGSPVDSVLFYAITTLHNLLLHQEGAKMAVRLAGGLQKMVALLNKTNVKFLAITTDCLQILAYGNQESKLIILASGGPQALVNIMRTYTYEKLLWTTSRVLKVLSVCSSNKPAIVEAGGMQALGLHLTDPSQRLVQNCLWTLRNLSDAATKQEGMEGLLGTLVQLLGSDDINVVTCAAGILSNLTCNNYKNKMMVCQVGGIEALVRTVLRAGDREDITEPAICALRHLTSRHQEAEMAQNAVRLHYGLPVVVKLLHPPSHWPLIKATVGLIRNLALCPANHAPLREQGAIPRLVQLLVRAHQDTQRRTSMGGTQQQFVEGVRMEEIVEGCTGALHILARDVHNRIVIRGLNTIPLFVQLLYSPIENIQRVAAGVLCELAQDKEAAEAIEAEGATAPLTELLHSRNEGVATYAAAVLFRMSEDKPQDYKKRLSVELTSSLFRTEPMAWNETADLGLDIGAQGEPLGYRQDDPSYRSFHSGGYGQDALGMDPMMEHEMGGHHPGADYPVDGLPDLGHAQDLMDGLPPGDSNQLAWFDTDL
- MEASUREMENT_PROTOCOL: cell-based or functional assay
Starred links: 1 amine or outer side, 2 acyl side, 3 side chain; linkers in the order of their positions; H or OH if unused. Positions of bridges follow the written chain, without caps; N, C: chain ends. Non-standard residues stand in square brackets, D forms with d. Primed or numbered codes have the meaning given here. PyrS2″ = (S)-3-amino-1-((pent-4-en-1-yloxy)carbonyl)pyrrolidine-3-carboxylic acid (stapling residue), C=CCCCOC(=O)N1CC[C@@](N[*:1])(C(=O)[*:2])C1; B5(4) = 2,2-bis(4-pentenyl)glycine = 2-amino-2-(pent-4-en-1-yl)hept-6-enoic acid (stitching residue), C=CCCCC(CCCC=C)(N[*:1])C(=O)[*:2]; (4PyPip)GlnR = (S)-2-amino-5-oxo-5-(4-(pyridin-4-yl)piperazin-1-yl)pentanoic acid, O=C(CC[C@H](N[*:1])C(=O)[*:2])N1CCN(c2ccncc2)CC1; TfeGA = (S)-2-amino-3-((carboxymethyl)(2,2,2-trifluoroethyl)amino)propanoic acid, O=C([C@H](CN(CC(=O)[*:3])CC(F)(F)F)N[*:1])[*:2]; B5(19) = 2-amino-2-(pent-4-en-1-yl)hept-6-enoic acid (bis(4-pentenyl)glycine), C=CCCCC(CCCC=C)(N[*:1])C(=O)[*:2]; (Morph)GlnR = (S)-2-amino-5-morpholino-5-oxopentanoic acid, O=C(CC[C@H](N[*:1])C(=O)[*:2])N1CCOCC1; Bta = N[C@@H](Cc1csc2ccccc12)C(=O)O; αAllylPro = C=CC[C@@]1(C(=O)O)CCCN1; tBuAla = CC(C)(C)C[C@H](N)C(=O)O; 3Thi = N[C@@H](Cc1ccsc1)C(=O)O
Each entry below lists one item and its recorded NanoBRET Abs IC50 value.
ENDPOINT_NAME: NanoBRET Abs IC50 (µM)

1. Ac-[αAllylPro]D[tBuAla][B5(4)]D[TfeGA]AAF[(Morph)GlnR][PyrS2″][3Thi][Bta]Q-NH2 (staple 1-4, 4-11) [I-1943] | 3.8
2. Ac-[αAllylPro]D[tBuAla][B5(19)]D[TfeGA]AAF[(4PyPip)GlnR][PyrS2″][3Thi][Bta]Q-NH2 (staple 1-4, 4-11) [I-1938] | 30
